These entries and their values trace back to patent US11013780B2.

Experiment: Single dose PK, phase 1, healthy Japanese men
Format: in vivo, human
Settings: male, human, plasma, sc, 0.004 mg, single SC bolus 0.004 mg, mean, read-out: T½ (converted)
Where a SMILES comes first, the peptide text is derived from it. [ ]: non-standard residue; d: D form. Arg(Me) = CNC(=N)NCCC[C@H](N)C(=O)O; Hyp = O=C(O)[C@@H]1C[C@@H](O)CN1; azaGly = NNC(=O)O

{"molecule": "CC(=O)O.CNC(=N)NCCC[C@H](NC(=O)[C@H](CC(C)C)NC(=O)NNC(=O)[C@H](Cc1ccccc1)NC(=O)[C@@H](NC(=O)[C@H](CC(N)=O)NC(=O)[C@@H]1C[C@@H](O)CN1C(=O)[C@@H](Cc1ccc(O)cc1)NC(C)=O)[C@@H](C)O)C(=O)N[C@@H](Cc1c[nH]c2ccccc12)C(N)=O [API-MA] (Ac-[dY][Hyp]NTF[azaGly]L[Arg(Me)]W-NH2)", "half-life": "1.91 h"}
